B1: LOXL2 (parent)
chain: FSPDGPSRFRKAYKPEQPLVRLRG

- Variants of: B1
- assay protocol: protein stability index of a GFP-peptide fusion (GPS, HEK-293T) (PSI 1-6); higher = more stable;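 further: lentivirally expressed fusions sorted by FACS into six bins by GFP to DsRed ratio, PSI derived from sequencing read proportions per bin multiplied by bin number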
- recorded conditions: c terminus: a fixed tail appended
Measured protein stability index by item

variant label | protein stability index
R21H | 2.25
P3K | 1.71
R21Y | 1.86
P15Q | 1.7
S2R | 2.96
P3C | 1.97
D4C | 2.21
G5I | 2.51
E16F | 1.39
L22D | 1.93
R10N | 1.94
P6A | 2.22
K14N | 2.35
S2M | 2.37
R8N | 1.71
R23A | 1.89
A12Y | 1.91
R23F | 1.97
R21Q | 1.8
G5M | 1.69
R8D | 2.31
K11Y | 2.6
L22V | 1.54
S7M | 1.96
R10G | 1.78
F1Y | 1.83
L19V | 1.41
Q17P | 2.81
L22M | 2.04
Y13L | 1.97
R10K | 1.75
R21D | 2
P15W | 1.5
K14Q | 1.76
F1S | 3.92
A12T | 2.59
E16Q | 2.92
R21G | 1.67
R23Q | 2.13
K11N | 2.7
L22R | 2.35
R8H | 2.23
R21F | 2.12
S2N | 2.01
F1H | 3.79
Q17K | 1.54
R10V | 2.46
G24V | 2.73
D4T | 2.01
K14Y | 2.61
V20I | 2.62
R8K | 1.27
V20Y | 2.17
R23C | 2.39
K11L | 2.31
S7P | 2.18
G5F | 2.33
P15K | 1.66
R23H | 1.85
K14L | 2.46
P3Q | 2.17
G24H | 1.52
F1L | 4.19
E16V | 1.85
S2T | 3.36
G5C | 2.03
F1C | 3.23
P3R | 2.12
D4M | 1.71
R21S | 1.73
R10L | 1.97
Q17R | 1.57
F9P | 3.29
P15M | 2.79
A12E | 2.15
L19M | 1.82
F9D | 3.29
P6N | 1.8
S2Y | 2.36
F9Q | 3.94
A12G | 2.44
L22F | 1.21
R21M | 1.59
P18K | 2.38
R8I | 4.19
Q17I | 2.18
F9N | 2.85
L22K | 1.58
R23G | 1.96
P18R | 1.86
F9G | 3.03

From: the supplement of paper PMC10567573
